- Assayed system: human IgG2 antibody (#I5404; Sigma-Aldrich) (human)
- Assay remarks: ELISA
This section presents binders with their documented OD values.
Hey, just send me the number, nothing else.

Please review the entries below; each comes with its answer.
Binder	Reported result
IgA R3-18 (scFv, not shown: small tags and cut ends) scFv: QSLEESGGRLVTPGTPLTLTCTVSGIDLSSNAMTWVRQAPGEGLEWIGTISTGGSTYFASWAKGRFTISKTSTTVDLKITSPTTEDTATYFCATRYDSYGYAYNYWFGTLWGPGTLVTVTSGGGGSGGGGSGGGGSELVMTQTAASVSEPVGGTVTIKCQASQNINNELAWYQQKPGQRPKLLIYDASKLASGVPSRFSGSGSGTEFTLTISGMQCDDAATYYCQSTYYDGNYVYAFGGGTEVDVKGS	3.09
R3-58 (scFv, not shown: small tags and cut ends) scFv: QQQLMESGGRLVTPGGSLTLTCTVSGIDLNSYAMGWVRQAPGKGLEYIGIIRNSGNTYYASWAKGRFTISKTSSTTVDLKMTSLTTEDTATYFCARYSGDNGGALNLWGPGTLVTVTSGGGGSGGGGSGGGGSELVMTQTAASVSGPVGGTVTIKCQASEFIRNYLAWYQQKPGQPPKLLIYTTSNLASGVPSRFSGSGSGTEYTLTISDLECADAATYYCQNYYDISTYGNAFGGGTEVVVIKGS	3.08

Lab note: next binder to report on.
The value of OD measured for the binder R3-23 (scFv, not shown: small tags and cut ends) scFv: QSVKESEGRLVTPGTPLTLTCTVSGFSLSRYAVSWVRQAPGKGLEWIGIIGSGGSTSYATWARGRFTISKTSTTVDLKITSPTTEDTVTYFCGSYYDSHGYAYVSLWGPGTLVTVTSGGGGSGGGGSGGGGSELVLTQTPSPVSGAVGGTVTINCQASQSISTALAWYQQKPGQPPKLLIYSASTLASGVSSRFKGSGSGTGFTLTISDLECADAATYYCQSYYGSSSDNAFGGGTEVVIKRS turned out to be 3.06
